The origin of these recorded values is the supplement of paper PMC8728848.

Measured glycan array binding signal (z-score), listed per entry for reference.
target: Gal(a1-3)Gal(b1-3)GlcNAc; assay: glycan array binding signal (z-score within array); higher = stronger binding; conditions: glycan notation: IUPAC condensed, linker removed
Only a selection was taken, and the strongest signals are over-represented in it overall.
Measured parameter: glycan array binding signal (z-score)

INSERT INTO measurements (binder, measured_parameter, result) VALUES
  ('Cohesin-mDCIR (Macaca mulatta) (protein) GLDDLDAVRIKVDTVNAKPGDTVRIPVRFSGIPSKGIANCDFVYSYDPNVLEIIEIEPGDIIVDPNPDKSFDTAVYPDRKIIVFLFAEDSGTGAYAITKDGVFATIVAKVKEGAPNGLSVIKFVEVGGFANNDLVEQKTQFFDGGVNVGDTTEPATPTTPVTTPTTTDDLDAASFQKYSQLLEKMTTKDLVHTTLECVKKNMTTEETAWSCCPKNWKPFSSNCYFISTESASWQKSEKDCARMEAHLLVINTREEQDFIFQNLQEESAYFVGLSDPEGQRHWQWVDRTPYNESSTFWHPHEPSDPDERCVVLNFRKTPKRWGWNDVHCIVHQRSVCEMMKIHLHHHHHH', 'glycan array binding signal (z-score)', 8.73),
  ('Sebin2 (Coprinopsis cinerea), A8PE78 (protein) MTTPFYAYCHNVQDDNTWRLGLVFANRSTADEWWRAISEATSSIPITKSITRVTPQYYTHDIRVWNMYNFFVDGNIKSISDKFRGRLFITLEYDRSGRGVSVFPPLHIVDHVSGNWYYIRSKTAPHLFWFYDETRNAIYASKEKRTRFKVSIRNPSPQTPKDAIMINSDDVVIHIKESLYVGVDSYLGHIIPTRAYRTFKFGELEGGAIAGIEVAENAEERCSSTFDGASLYFVGPDSSSPGEPWELV', 'glycan array binding signal (z-score)', 1.62);
